Source listed as the supplement of paper PMC10065799.

System: c-Abl (mouse)
Experiment: phosphorylation enrichment, bacterial display (enrichment ratio); higher = better substrate or ligand; peptides without Tyr show the background;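 also: 11-residue human phosphosite peptides and single-mutation variants displayed on the E. coli surface, counted by deep sequencing, each peptide's frequency after selection divided by its frequency in the unselected input library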;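 also: frequency after pTyr selection over input frequency; kinase dosed for 20-30% of maximal phosphorylation in three min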
I would appreciate it if you labelled entries True when phosphorylation enrichment is 0.7 or higher, otherwise False.

{"columns": ["entry.sequence", "measured.target", "class.label"],
 "data": [
  ["TFAVSYLPDMS [FLNC_Y1602_T1599A_YF]", "c-Abl (mouse)", "False"],
  ["IFGVSYDEFRF [CFTR_Y512_YF]", "c-Abl (mouse)", "False"],
  ["LHQSTYQRFDV [SLC7A14_Y693_YF]", "c-Abl (mouse)", "True"],
  ["VKANTYENYWP [GATM_Y100_K102N]", "c-Abl (mouse)", "True"],
  ["EKAEVYGSENE [RIOK2_Y348]", "c-Abl (mouse)", "False"],
  ["GGYNNYGYGSD [HNRNPH3_Y159_N163S]", "c-Abl (mouse)", "False"],
  ["QYPDVYAREEV [CRX_Y67]", "c-Abl (mouse)", "True"],
  ["QSSALYEDRYL [ASS1_Y83]", "c-Abl (mouse)", "False"],
  ["FGMQLYQNFMH [GRB14_Y347_YF]", "c-Abl (mouse)", "True"],
  ["LRFDSYSSFCN [SLC20A2_Y433_YF]", "c-Abl (mouse)", "True"],
  ["ILDEAYVMASM [EGFR_Y764_V769M]", "c-Abl (mouse)", "True"],
  ["KVALVYGQMNE [ATP5F1B_Y269]", "c-Abl (mouse)", "False"],
  ["EILDVYIFLGP [GAA_Y340_G335E]", "c-Abl (mouse)", "False"],
  ["IRFSDYVEVAD [PHACTR1_Y525]", "c-Abl (mouse)", "True"],
  ["TEALYYTDDTA [ADPRS_Y75]", "c-Abl (mouse)", "False"],
  ["PTFEHYANSTQ [SLC12A3_Y70_YF]", "c-Abl (mouse)", "True"],
  ["ATGLIYIGSHD [AASDH_Y870_T865A]", "c-Abl (mouse)", "True"],
  ["FAELMYTGFWH [ASS1_Y322_V321M]", "c-Abl (mouse)", "True"],
  ["GGMTEYNLVVV [KRAS_Y4_K5N]", "c-Abl (mouse)", "True"],
  ["RQQEVYLLYKQ [RARRES1_Y159_D158V]", "c-Abl (mouse)", "True"],
  ["DGTGRYLCNAC [GATA5_Y208_H207R]", "c-Abl (mouse)", "False"],
  ["INVTIYGKTFR [EFHC1_Y177_I174V]", "c-Abl (mouse)", "True"],
  ["TESALYGCTIL [MAP3K21_Y724_V728I]", "c-Abl (mouse)", "True"]
]}

* * *

Measured phosphorylation enrichment values are reported for all entries that follow.
Molecular target: EPHB2 (UniProt P29323)
Sequence (P29323 whole entry, looked up): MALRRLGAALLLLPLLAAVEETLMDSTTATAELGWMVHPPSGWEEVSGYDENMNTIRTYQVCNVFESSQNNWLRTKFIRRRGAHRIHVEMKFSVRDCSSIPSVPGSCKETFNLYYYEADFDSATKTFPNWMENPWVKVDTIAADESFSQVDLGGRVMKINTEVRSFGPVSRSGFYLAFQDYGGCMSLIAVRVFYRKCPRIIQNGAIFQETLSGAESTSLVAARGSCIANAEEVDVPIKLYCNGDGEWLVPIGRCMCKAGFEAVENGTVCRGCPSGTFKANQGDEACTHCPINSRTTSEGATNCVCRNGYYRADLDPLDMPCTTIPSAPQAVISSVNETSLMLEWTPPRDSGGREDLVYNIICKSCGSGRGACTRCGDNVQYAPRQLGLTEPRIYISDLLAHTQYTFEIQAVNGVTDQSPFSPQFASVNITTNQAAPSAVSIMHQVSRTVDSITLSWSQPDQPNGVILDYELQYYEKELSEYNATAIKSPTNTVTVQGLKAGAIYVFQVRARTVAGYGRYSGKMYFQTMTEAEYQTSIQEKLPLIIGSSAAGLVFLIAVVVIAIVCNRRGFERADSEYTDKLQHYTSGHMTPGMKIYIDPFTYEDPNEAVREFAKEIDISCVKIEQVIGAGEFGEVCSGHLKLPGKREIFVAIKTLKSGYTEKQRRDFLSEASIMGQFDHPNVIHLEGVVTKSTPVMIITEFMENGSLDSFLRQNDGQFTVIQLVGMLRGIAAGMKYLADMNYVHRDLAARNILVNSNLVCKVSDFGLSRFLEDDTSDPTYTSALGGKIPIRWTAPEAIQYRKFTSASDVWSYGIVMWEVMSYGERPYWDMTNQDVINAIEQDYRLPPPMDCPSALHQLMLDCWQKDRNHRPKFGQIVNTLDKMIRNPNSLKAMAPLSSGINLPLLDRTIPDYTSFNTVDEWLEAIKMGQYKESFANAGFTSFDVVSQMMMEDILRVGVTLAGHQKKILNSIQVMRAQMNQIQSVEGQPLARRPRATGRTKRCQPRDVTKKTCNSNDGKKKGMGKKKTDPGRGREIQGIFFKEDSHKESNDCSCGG
Assay: phosphorylation enrichment, bacterial display (enrichment ratio); higher = better substrate or ligand; peptides without Tyr show the background

{"columns": ["entry.sequence", "phosphorylation enrichment"],
 "data": [
  ["NYRPGYNNFYN [USH2A_Y467]", 0.602],
  ["RQRTAYFSLNT [CDH1_Y68_D72N]", 0.68],
  ["QKLPSYILENN [VPS13B_Y2774]", 0.701],
  ["EEHIPYTHMNG [INSR_Y1361]", 0.517],
  ["QNTGDDYDLYG [PTPN11_Y62_Y62D]", 1.63],
  ["FPRAWCRRSIA [KIAA1109_Y4272_Y4272C]", 0.484],
  ["EVDELYREAPI [MYL12B_Y143]", 0.654],
  ["YLTSSYINIST [IL23R_Y178]", 0.588],
  ["IENKPYGMSDP [RET_Y1062_L1061P]", 0.508],
  ["SFGESYDNSKS [MAN1B1_Y60_N59S]", 0.508],
  ["PDDPDYSLVDD [PSTPIP2_Y323_N322D]", 0.963],
  ["PNRILYGDFRQ [MYH6_Y717]", 0.731],
  ["FDDIAYIQKTL [PIK3CA_Y1021_R1023Q]", 0.68],
  ["EDASEYFENYI [PARP4_Y214]", 0.66],
  ["PQAVRYIFTID [DCX_Y103_G100A_YF]", 0.59],
  ["PLDGGYFTLQI [TP53_Y327_E326G]", 0.776],
  ["YEEDSYSHIMA [FDPS_Y388]", 0.714],
  ["RKVAQYMLENE [SLC16A6_Y224_E221V]", 0.901],
  ["CRAVKYLQMVG [AVPR2_Y117]", 0.44],
  ["HHLSTYTKMLF [CHST8_Y251_R247H]", 0.902],
  ["TEALYYTDDTA [ADPRS_Y75]", 0.78],
  ["ISIFYYAKGQP [MPZ_Y82_H81Y]", 0.61],
  ["TQKLAYVELQQ [CENPF_Y700_M701V]", 0.561],
  ["WDLPEYSFKDP [ITGA3_Y237_S235P_YF]", 0.571],
  ["QDLRLYRPHLA [BTK_Y617_G613D]", 0.467],
  ["VFDMLYQLANL [USP24_Y1087]", 1.34],
  ["GIYSGYDDAWD [POLR1C_Y36_N32I]", 2.5],
  ["TSNQEYLFLSM [FGFR1_Y766_D768Y_YF]", 0.721],
  ["GDLTDYLMKIL [ACTA1_Y190_R185G]", 0.476],
  ["TSSAVYMNLAS [GATAD2B_Y317_I316V]", 0.65],
  ["RLPNGYGLAYR [DLK1_Y262_S260N]", 0.528],
  ["LANNEYYFQVC", 1.56],
  ["HEEDNYIELIP [NWD2_Y566]", 1.91],
  ["LHSEAYLKFIE [PBRM1_Y1610_YF]", 0.881],
  ["HLLRIYFDITD [MMP27_Y307_W304L_YF]", 0.891],
  ["REGAKYVSHGA [ASS1_Y113]", 0.4],
  ["HSGLAYTMERS [GLUD1_Y512]", 0.495],
  ["FARNCYVAGQF [G6PD_Y107_S106C_YF]", 0.487],
  ["PTFEHYANSTQ [SLC12A3_Y70_YF]", 0.993],
  ["LSSNLYFRWLT [CNGA3_Y168_P163L_YF]", 0.749],
  ["TDDMRYPMKSE [TGDS_Y302_N298D]", 0.527],
  ["PPLMLYNPTTF [EGFR_Y270_YF]", 0.891],
  ["DKEKWYPLGNS [PIK3C2G_Y1438]", 0.441],
  ["FTRNYYVQAVL [CYBA_Y88_R90Q]", 0.558],
  ["EEAAGCAQESQ [CAMKV_Y491_Y491C]", 0.591],
  ["STTSDYQWDFS [MTDH_Y364_V368F]", 0.776]
]}
